# System: HOP-92 NSCLC
# protocolSummary: NCI tumour cell line growth inhibition, 48 h
assayEndpoint: TGI (µM)
Numbers only, in µM.

C=CCN(c1cc(OCc2ccccc2)c(NC(C)=O)cc1[N+](=O)[O-])S(C)(=O)=O    41.2
CCCCCCCCCCCCCC[P+](CCCCCC)(CCCCCC)CCCCCC    0.423
COc1cc2c(c(OC)c1OC)-c1ccc(NNC(=S)N(Cc3cccc(C[N+](Cc4cccc(CNC56CC7CC(CC(C7)C5)C6)c4)(Cc4cccc(CNC56CC7CC(CC(C7)C5)C6)c4)Cc4cccc(CN(C(=S)NNc5ccc6c(cc5=O)[C@@H](NC(C)=O)CCc5cc(OC)c(OC)c(OC)c5-6)C56CC7CC(CC(C7)C5)C6)c4)c3)C34CC5CC(CC(C5)C3)C4)c(=O)cc1[C@@H](NC(C)=O)CC2 (stereo partly drawn)    4.08
Cc1cc(NS(=O)(=O)c2ccc(NC(=O)c3cccc4c(NNc5ccc(S(=O)(=O)N=C(N)N)cc5)c5ccccc5nc34)cc2)no1    92.7

Give TGI for all molecules that follow.
1. CCOC(=O)c1c2c(n3ccc(NC(=O)OC(C)(C)C)cc13)C(=O)c1ncccc1C2=O
2. COc1ccc(C(O)c2cc3c(N)c(C(=O)Nc4cccc(Cl)c4C)sc3nc2C)cc1 (stereo not drawn)

*A*
1. 0.927
2. 1.68

###

# Tested on: HCT-15 colon
# protocolSummary: NCI tumour cell line growth inhibition, 48 h
Assignment: determine reported TGI for the given compounds.

O=C(Nc1nnc(-c2ccccc2)o1)C(SC(=S)N1CCOCC1)c1ccccc1 (stereo not given)    > 100 µM
COc1ccc(C[C@H](N)C(=O)N2C[C@H](CO)C[C@H](n3cnc4c(N(C)C)ncnc43)C2)cc1    > 100 µM
CSc1nc(NC2OCC(O)C(O)C2O)c(N)c(=O)n1C (stereo not given)    > 100 µM

Here are 2 compounds. What values of TGI were reported for them?
1. CCOC(=O)CCc1c(C(=O)OCC)[nH]c(/C=C2\NC(=O)C(C)=C2CC)c1C
2. Cn1c(=O)c(Oc2cccc(F)c2)cc2cnc(NC3CCOCC3)nc21

*A*
1. > 100 µM
2. > 25 µM

###

# Tested on: NCI-H522 lung
# protocolSummary: NCI tumour cell line growth inhibition, 48 h
Exercise: for every item that follows, state its recorded TGI.

COc1ccc(-c2nc(-c3cc4ccccc4oc3=O)cs2)cc1    > 100 µM
O=c1[nH]c2cc3cccnc3c(Cl)c2nc1C(F)(F)F    > 100 µM

With those in mind, consider the next compound.
*Q* Request the reported TGI associated with Cc1cn(CC2=NCCCN2)c(=O)[nH]c1=O
*A* > 100 µM

###

# Tested on: NCI/ADR-RES ovarian
# protocolSummary: NCI tumour cell line growth inhibition, 48 h
Can you tell me TGI for the items I'm about to list?

C[C@@H]1C[C@]2(C[C@@H](C)[C@H]3C(C[C@@]4(C)CCC[C@@H]5C6=C[C@H](CCC34C)OC6=CC(=O)OC5(C)C)O2)OC1=O (stereo not given in full)    > 51.5 µM
CC(NC1=NCCO1)c1cccc([N+](=O)[O-])c1 (stereo not given)    > 100 µM
C1#Cc2ccccc2OCCOc2ccccc2C#Cc2ccccc2OCCOc2ccccc21    > 100 µM
Cc1nccn1S(=O)(=O)c1ccc(Br)cc1Br    > 100 µM

*Q* Under NCI/ADR-RES ovarian: TGI value of O=[N+]([O-])c1cc(O)c(O)cc1-c1cn2ccsc2n1 ?
*A* > 100 µM

###

Assign TGI to each entry below.
# Test system: EKVX NSCLC
# protocolSummary: NCI tumour cell line growth inhibition, 48 h

Take a look at these entries with their results.
COCN1CCN=c2c1c1c3c(c4ccccc4n23)CCC1    > 100 µM
CCNc1c(C(=O)N(CC)CC)c(=O)[nH]c2ncccc12    > 100 µM

Now look at this one.
*Q* Value wanted: TGI (EKVX NSCLC) of entry NS(=O)(=O)c1ccc(Nc2c3ccccc3nc3c(C(=O)NCCCN(CCO)CCO)cccc23)cc1
*A* > 100 µM

###

# Tested on: HCC-2998 colon
# protocolSummary: NCI tumour cell line growth inhibition, 48 h
assayEndpoint: GI50

O=CN1N=C(c2ccc(Nc3ccnc4cc(Cl)ccc34)cc2)CC1c1ccccc1 (stereo not given)    3.5 µM

Record GI50 for all entries; do not skip any.
1. O=c1[nH]cnc2c1nnn2C1OC(CO)C(O)C1O (stereo not given)
2. O=S(=O)([O-])[O-].[Cl-].[NH2-].[NH2-].[NH2-].[NH2-].[Ru+3].c1ccc(-c2cccnc2)cc1
3. CC(=N\O)/C(C)=N/O.CC(=N\O)/C(C)=N/O.CC(=N\O)/C(C)=N/O.CC(=N\O)/C(C)=N/O.[Cu].[Cu]
4. COc1cc2c(c(OC)c1OC)-c1ccc(NNC(=S)N(Cc3cccc(C[N+](Cc4cccc(CNC56CC7CC(CC(C7)C5)C6)c4)(Cc4cccc(CNC56CC7CC(CC(C7)C5)C6)c4)Cc4cccc(CN(C(=S)NNc5ccc6c(cc5=O)[C@@H](NC(C)=O)CCc5cc(OC)c(OC)c(OC)c5-6)C56CC7CC(CC(C7)C5)C6)c4)c3)C34CC5CC(CC(C5)C3)C4)c(=O)cc1[C@@H](NC(C)=O)CC2 (stereo not given in full)

*A*
2.65 µM
> 100 µM
16.8 µM
0.635 µM

###

# Test system: COLO 205 colon
# protocolSummary: NCI tumour cell line growth inhibition, 48 h
assayEndpoint: TGI

In the examples that follow, each entry is paired with its recorded TGI.
N#CCCN(CCC#N)c1ccc(/C=C2\N=C(COc3ccc(Cl)cc3Cl)OC2=O)cc1    > 100 µM
CSc1nc(NC2OCC(O)C(O)C2O)c(N)c(=O)n1C (stereo not given)    > 100 µM
CCc1ccc(-c2ccc(=O)n(-c3ccc(S(N)(=O)=O)cc3)n2)cc1    > 55.6 µM

I'm hoping you can list TGI for every molecule here, please.
1. O=CN1N=C(c2ccc(Nc3ccnc4cc(Cl)ccc34)cc2)CC1c1ccccc1 (stereo not given)
2. N#Cc1cccc(C(=O)c2cnn(-c3ccc(F)cc3)c2N)c1

*A*
6.15 µM
> 25 µM

###

# Test system: SW-620 colon
# protocolSummary: NCI tumour cell line growth inhibition, 48 h
assayEndpoint: TGI

Check out these entries, answers already filled in.
COc1cc(/C=C2\N=C(c3ccccc3)N(/N=C3\C(=O)Nc4ccccc43)C2=O)cc(OC)c1OC    > 100 µM
CCOCC(=O)N[C@H]1CCc2cc(OC)c(OC)c(OC)c2-c2ccc(SC)c(=O)cc21    > 100 µM
CNS(=O)(=O)NN(C)S(=O)(=O)c1ccc(Cl)cc1    > 100 µM
O=C(/C=C/c1ccc(-c2ccccc2)cc1)NCc1ccc(C(=O)NCCc2c[nH]c3ccccc23)cc1    > 100 µM
Nc1ccccc1NC(=O)CCCCCCC(=O)Nc1ccc2c(c1)/C(=C/c1ccc[nH]1)C(=O)N2    > 100 µM

Please supply TGI for each of the following items, keeping them in order.
1. CCCC(CC)c1c(O)c(O)c(C(CC)CCC)c(C(CC)CCC)c1C(CC)CCC (stereo not given)
2. CSc1nc(NC2OCC(O)C(O)C2O)c(N)c(=O)n1C (stereo not given)
3. O=C(O)CNS(=O)(=O)c1ccc(NC(=O)c2ccc(F)cc2)cc1
4. Cc1cc2ccccc2n1CC(=O)N1CCCC1
5. Cn1c(-c2ccc[se]2)ccc1-c1ccc(CO)[se]1
6. CCN(CC)C(=S)N/N=C/c1ccccn1

*A*
> 10 µM
> 100 µM
> 100 µM
> 100 µM
> 100 µM
> 100 µM

Could I get TGI for every one of these entries?
1. CC(=NCCN(CCN=C(C)c1c(O)cc(C)oc1=O)CCN=C(C)c1c(O)cc(C)oc1=O)c1c(O)cc(C)oc1=O
2. O=C1O[C@H](C(Cl)(Cl)Cl)N2CCCC12 (stereo not given in full)
3. CN1C/C(=C\c2ccc(Cl)cc2)C(=O)/C(=C/c2ccc(Cl)cc2)C1
4. Cc1cc(N=Cc2c(CO)cnc(C)c2O)c(N=Cc2c(CO)cnc(C)c2O)cc1C.[Zn]
5. COc1ccc(-c2nc(-c3cc4ccccc4oc3=O)cs2)cc1

*A*
["> 100 µM", "> 100 µM", "> 100 µM", "> 100 µM", "> 100 µM"]

###

# System: OVCAR-5 ovarian
# protocolSummary: NCI tumour cell line growth inhibition, 48 h
assayEndpoint: TGI

COc1ccc(-c2nc(-c3cc4ccccc4oc3=O)cs2)cc1    > 100 µM
CC(=NCCN(CCN=C(C)c1c(O)cc(C)oc1=O)CCN=C(C)c1c(O)cc(C)oc1=O)c1c(O)cc(C)oc1=O    > 100 µM
C=C1C(=O)O[C@H]2C/C(C)=C/CC/C(C)=C/CC[C@@](C)(O)[C@@H](I)C[C@@H]12    30.2 µM

Quick one: give me TGI for each item below, same order please.
1. O=C(/C=C/c1ccc(-c2ccccc2)cc1)NCc1ccc(C(=O)NCCc2c[nH]c3ccccc23)cc1
2. COc1ccc(C(O)c2cc3c(N)c(C(=O)Nc4cccc(Cl)c4C)sc3nc2C)cc1 (centres undefined)
3. Cc1cc2ccccc2n1CC(=O)N1CCCC1
4. Nc1ccc(-c2nc3ccccc3[nH]2)c(O)c1

*A*
1. 66.6 µM
2. 1.92 µM
3. > 100 µM
4. > 100 µM

The following compounds each have a reported value; give each one's TGI.
1. CCOC(=O)C(NC(=O)CC(C)C)(Nc1ccc(C(F)(F)F)cc1)C(F)(F)F (centres undefined)
2. NC(c1ccccc1)(C(F)(F)F)P1(=O)OC(=O)c2ccccc2O1 (centres undefined)

*A*
1: > 100 µM; 2: > 100 µM
